# Tested on: Macaca fascicularis PRLR (mfPRLR.mmh; SEQ ID NO:403)
# Sequence (as listed by the source): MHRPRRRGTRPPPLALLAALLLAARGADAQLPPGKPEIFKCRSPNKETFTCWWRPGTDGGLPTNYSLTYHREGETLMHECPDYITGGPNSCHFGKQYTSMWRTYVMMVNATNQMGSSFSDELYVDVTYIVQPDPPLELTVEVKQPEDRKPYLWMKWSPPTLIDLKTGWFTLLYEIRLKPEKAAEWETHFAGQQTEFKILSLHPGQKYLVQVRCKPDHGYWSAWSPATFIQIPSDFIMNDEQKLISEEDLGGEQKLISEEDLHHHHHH
# test protocol: Surface plasmon resonance (Biacore T200), antibody-capture format
# Assay type: binding
# condition summary: 37° C., analyte mfPRLR.mmh
measured property: ka (M/s)
# unit: M/s | format: bare number

IN: Specify ka for H1H6765P: fully human anti-PRLR antibody, human IgG1 Fc; HCVR/LCVR SEQ ID NOs 18/26 (antibody, V domains shown) VH: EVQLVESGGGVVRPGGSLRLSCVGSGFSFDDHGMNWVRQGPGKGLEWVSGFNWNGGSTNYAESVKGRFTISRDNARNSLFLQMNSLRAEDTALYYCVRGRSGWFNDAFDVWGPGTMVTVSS VL: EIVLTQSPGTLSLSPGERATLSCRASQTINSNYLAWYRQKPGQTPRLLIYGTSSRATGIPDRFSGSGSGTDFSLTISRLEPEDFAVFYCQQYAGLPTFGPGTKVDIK and stop.
OUT: 1.06e+06
